Recorded TGI, one value per entry.
- Test system: SNB-78 CNS
- measurement protocol: NCI tumour cell line growth inhibition, 48 h

Answered cases to consult:
item smiles | TGI
CCCCCCCCCCCOC(=S)NC(C)C | 78.5 µM
Cc1c2cc(Cl)ccc2n2c(=O)c3ccccc3[nH]c(=O)c12 | > 100 µM

Incoming: Entry "Nc1nc(CCC(=O)Nc2cccc(C(F)(F)F)c2)cc(-c2cccc3ccccc23)n1" : reported TGI = ?
Outgoing: > 100 µM

----------
- Tested on: RXF 393 renal
- measurement protocol: NCI tumour cell line growth inhibition, 48 h
Recorded TGI, one value per entry.

Answered cases to consult:
molecule | TGI
Cc1ccc(C)n1-c1ccccc1C1SCCCS1 | > 100 µM
OCC1OC(c2scc3c(=S)nc[nH]c23)C(O)C1O (stereo not drawn) | > 100 µM

Incoming: Entry "O=C1N[C@H]2c3c(Cl)sc(Cl)c3/C(=N/O)[C@H]2O1" : reported TGI = ?
Outgoing: > 100 µM

----------
- Tested on: NCI-H522 lung
- measurement protocol: NCI tumour cell line growth inhibition, 48 h; in the data active means GI50 below about 0.43 µM; inactive means the rest
Returns: one label drawn from Y = active, N = inactive

item smiles | experimental target | category label
Cc1cc(C)nc(NC(N)=NCCc2ccccc2)n1 | NCI-H522 lung | N
COc1ccc(C#Cc2ccccc2C#CCCCCO)cc1 | NCI-H522 lung | N

Incoming: # outcome recorded in this test, key = "CCC[CH2][Sn]([CH2]CCC)([O]C(=O)c1c(F)cccc1F)[O]C(=O)c1c(F)cccc1F"
Outgoing: Y

----------
- System: T-47D breast
- measurement protocol: NCI tumour cell line growth inhibition, 48 h
Recorded TGI, one value per entry.

Answered cases to consult:
molecule | TGI
CC(C)(C)OC(=O)NCCNC1=CC(=O)c2nc3ccccc3c3ccnc1c23 | > 100 µM
C=CCC1(O)c2ccccc2C(=O)c2c(O)ccc(O)c21 (stereo not given) | > 59.2 µM
O=[N+]([O-])c1ccc(Nc2ccccc2-c2ccccc2)c2nonc12 | > 100 µM

Incoming: Entry "COc1ccc(-c2[nH]ncc2-c2cc3c(c(OC)c2)OCC(=O)N3)cc1" : reported TGI = ?
Outgoing: 42.9 µM

Incoming: What do you get for "COC1=CC(c2ccc[nH]2)=N/C1=C\c1[nH]c(C)c(C(=O)OCc2ccccc2)c1C" ?
Outgoing: 1.6 µM

Incoming: What do you get for "C=C(CNC(=O)Nc1ccc(-c2ccccc2)cc1)c1ccc(C(=O)Nc2ccccc2N)cc1" ?
Outgoing: > 100 µM

Incoming: What do you get for Nc1ccn(C2OC(CO)C(O)C2F)c(=O)n1 (stereo not given) ?
Outgoing: > 5000 µM

Incoming: What do you get for "CC1=NN(c2nc(N)nc(-c3ccccc3S(N)(=O)=O)n2)C(C)(C)C1" ?
Outgoing: > 100 µM

Incoming: What do you get for "CC1=NN(C(=O)c2ccccc2O)C(=O)/C1=C/c1ccc([N+](=O)[O-])cc1" ?
Outgoing: > 100 µM

Incoming: What do you get for "COc1cc(/C(Cl)=C/C=C/C(=O)c2c(C)[n+]([O-])c3ccc(Cl)cc3[n+]2[O-])cc(OC)c1OC" ?
Outgoing: > 50 µM

Incoming: What do you get for COc1cc(/C=C2/SC(c3ccccc3)N(c3ccc(NC(C)=O)cc3)C2=O)cc(OC)c1OC (stereo not given) ?
Outgoing: > 100 µM

----------
- Tested on: ACHN renal
- measurement protocol: NCI tumour cell line growth inhibition, 48 h
Recorded TGI, one value per entry.

Answered cases to consult:
compound | TGI
COc1ccc(-c2nc(N)c(C#N)c3c2CCS(=O)(=O)c2ccc(C)cc2-3)cc1OC | > 100 µM
CCc1nn(CN2CCN(C)CC2)c(=S)n1/N=C\c1ccc(-c2ccc([N+](=O)[O-])cc2)o1 | > 100 µM
COC(=O)c1cn(CCCC(=O)O)nn1 | > 100 µM
CC1=CCC[C@@]2(C)C(CC[C@@H]2C(C)/C=C/C(C)C)c2ccc(cc2C(=O)O)C[C@@H](O)CC1 (some centres not stated) | 18.7 µM
COc1ccc2oc(=N)c(C(=O)Nc3cccc4ccccc34)cc2c1 | > 100 µM

Incoming: Entry CNC(=O)c1ccccc1-[s+]1c2ccccc2c(=O)n1C (configuration not stated) : reported TGI = ?
Outgoing: > 100 µM

Incoming: What do you get for "c1ccc(C2=NC3(CCCCC3)N(c3nc4ccccc4s3)N2)nc1" ?
Outgoing: > 100 µM

Incoming: What do you get for COc1cc(/C=C/C(=O)OCC23CC[C@@]4(C(=O)O)CCC(C)[C@H](C)C4C2=CCC2[C@@]4(C)CC[C@H](O)C(C)(C)C4CC[C@]23C)ccc1O (some centres not stated) ?
Outgoing: 8.24 µM

Incoming: What do you get for COCOc1ccc(C(=O)C(C)c2ccc(OCOC)cc2OCOC)c(O)c1 (configuration not stated) ?
Outgoing: > 100 µM

Incoming: What do you get for "NNC(=S)N/N=C(\CCCC(=O)NCCc1ccccc1)CC(=O)c1ccccc1" ?
Outgoing: > 100 µM

Incoming: What do you get for "O=C(CSCC(=O)N/N=C/c1cc(I)cc(I)c1O)N/N=C/c1cc(I)cc(I)c1O" ?
Outgoing: 32.2 µM

Incoming: What do you get for "OCCOc1ccc(-c2cc(-c3ccccn3)nc(-c3ccccn3)c2)cc1" ?
Outgoing: 3.78 µM

Incoming: What do you get for "O=C1C(N2CCCC2)=CC(=O)c2c(O)c(N3CCCC3)c(Cl)c(O)c21" ?
Outgoing: > 10 µM

Incoming: What do you get for "CC1=NN(C(=O)c2ccccc2O)C(=O)/C1=C/c1ccc([N+](=O)[O-])cc1" ?
Outgoing: > 100 µM

Incoming: What do you get for "C=C(C)[C@@]1(O)O[C@H]2C[C@@]3(C)OC(=CC3=O)/C(C)=C\[C@@H]3OC(=O)[C@@]1(C)[C@H]32" ?
Outgoing: > 77.1 µM

----------
Recorded TGI, one value per entry.
- System: BT-549 breast
- measurement protocol: NCI tumour cell line growth inhibition, 48 h

molecule | TGI
O=C1c2ccccc2C(=O)N1n1c(Cc2ccccc2)n[nH]c1=O | > 100 µM
CCCCNC1CCC2(SCCS2)c2[nH]c3ccccc3c21 (stereo not drawn) | > 100 µM

Continue with the molecule presented below.
Incoming: Entry "C=CC(=O)Nc1ccc(Nc2nccc(-c3ccc(N4CCCC4)c(C#N)c3)n2)cc1" : reported TGI = ?
Outgoing: > 25 µM

----------
- Tested on: MALME-3M melanoma
- measurement protocol: NCI tumour cell line growth inhibition, 48 h
value type: TGI

Incoming: Entry "CC1(C)O[C@H]2Cn3c(c(C#N)c4ccccc43)[C@H]2O1" : reported TGI = ?
Outgoing: > 100 µM

Incoming: What do you get for "C[n+]1c(/C=C\C=C\N2CCCCC2)sc2ccccc21" ?
Outgoing: 2.18 µM

Incoming: What do you get for "COc1ccc(/C=C2\CN(C)Cc3c2nc(N)nc3-c2ccc(OC)cc2)cc1" ?
Outgoing: > 100 µM

Incoming: What do you get for CCOC(=O)c1ccc(N=NN(C)C(=O)C(C)N)cc1 (centres undefined) ?
Outgoing: > 100 µM

Incoming: What do you get for CC1CC2C3CC(F)C4=CC(=O)C=CC4(C)C3(F)C(O)CC2(C)C1(O)C(=O)COC(=O)C(C)(C)C (centres undefined) ?
Outgoing: > 100 µM

Incoming: What do you get for "O=P([O-])(O)OP(=O)([O-])O.[NH-][C@H]1CCCC[C@@H]1[NH-].[OH-].[OH-].[Pt+4]" ?
Outgoing: 38.2 µM

Incoming: What do you get for "COc1cc(-c2nn3c(/C=C4/C(=O)Nc5ccccc54)c(-c4ccc(C)cc4)nc3s2)cc(OC)c1OC" ?
Outgoing: 4.78 µM

Incoming: What do you get for "O=S(=O)(c1ccc(Br)cc1)n1c2ccc(Br)cc2c2nc3ccccc3nc21" ?
Outgoing: > 100 µM

Incoming: What do you get for "C=C1C(=O)O[C@H]2[C@H]1CC/C(CNC(=O)/C=C/c1ccc(Br)cc1)=C\CC[C@@]1(C)O[C@@H]21" ?
Outgoing: 2.78 µM

----------
- System: SF-539 CNS
- measurement protocol: NCI tumour cell line growth inhibition, 48 h
Recorded TGI, one value per entry.

Answered cases to consult:
molecule | TGI
CC(=O)OCC1OC(Nc2[nH]c(=O)n(C)c(=O)c2-c2csc(N)n2)C(OC(C)=O)C(OC(C)=O)C1OC(C)=O (configuration not stated) | > 100 µM
CCOC(=O)c1cn(-c2ccccc2)c(=S)n2c1nc1ccccc12 | > 100 µM
Nc1ccn(C2OC(CO)C(O)C2F)c(=O)n1 (configuration not stated) | > 5000 µM
Cc1ccc(C)n1-c1ccccc1C1SCCCS1 | > 100 µM
Cc1nc2c(=S)[nH]ncc2[nH]1 | > 100 µM

Incoming: Entry "COc1cc(-c2nn3c(/C=C4/C(=O)Nc5ccccc54)c(-c4ccc(C)cc4)nc3s2)cc(OC)c1OC" : reported TGI = ?
Outgoing: 96 µM

Incoming: What do you get for "N#C/C(=C\c1ccccc1O)C(N)=O" ?
Outgoing: > 100 µM

Incoming: What do you get for O=C(c1ccccc1)c1c(NCC(O)CN2CCCC2)n(Cc2ccccc2)c(=O)n(Cc2ccccc2)c1=O (configuration not stated) ?
Outgoing: 33.9 µM

Incoming: What do you get for "O=C1OC(=O)c2c1c(-c1ccccc1)cn2-c1ccc(Cl)cc1" ?
Outgoing: > 100 µM

Incoming: What do you get for "CN(C)c1ccc2c(c1)C(=O)N(OS(=O)(=O)c1ccc([N+](=O)[O-])cc1)C2=O" ?
Outgoing: 33.8 µM

Incoming: What do you get for COc1cc2c(cc1OC)C13CCN4C=C5CCOC6CC(=O)N2C1C6C5CC43 (configuration not stated) ?
Outgoing: > 100 µM

Incoming: What do you get for "O=c1cnn(C/C=C\CO)c(=O)[nH]1" ?
Outgoing: > 100 µM
